Where these numbers come from: PubChem BioAssay (NCATS)

# experiment_summary: Cell Viability - LYMP2-024 (AID 988);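 also: cells exposed to compound for 24 hr at 37 °C; plate controls were DMSO only for no effect and 92 µM tetraoctylammonium bromide for full effect; nearly all actives have a fitted effect of over 60% in size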
# condition_notes: LYMP2-024 lymphoblastoid cell viability; series mostly up to 92.2 µM
Inconclusive results are not listed. Active and inactive are the calls of the source. Calls follow the shape of the dose curve; as a rule, active = well fitted cell-killing curve with a large enough effect; inconclusive = small, poorly fitted or top-dose-only effect; inactive = flat fitted curve, though single readings scatter.
recorded_endpoint: outcome

O=C(O)c1cc(Cl)ccc1Cl; inactive
O=Cc1ccc2c(c1)OCO2; inactive
CC(C)CON=O; inactive

---

# experiment_summary: Cell Viability - LYMP2-021 (AID 974);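 also: compound exposure lasts 24 hours at 37 °C; % is scaled to controls: 0 for no effect and ±100 for the full control effect; nearly all actives have a fitted effect of over 55% in size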
# condition_notes: LYMP2-021 lymphoblastoid cells viability; series mostly up to 92.2 µM
Inconclusive results are not listed. The source made the active and inactive calls. Calls follow the shape of the dose curve; as a rule, active = well fitted cell-killing curve with a large enough effect; inconclusive = small, poorly fitted or top-dose-only effect; inactive = flat fitted curve, though single readings scatter.
recorded_endpoint: outcome

// known answers, use as guide
O=C(O)CCl; inactive
Oc1cccc(Cl)c1Cl; inactive
c1ccc(N=NNc2ccccc2)cc1; inactive
COC(C)(C)C; inactive
C=CCO; inactive

// for each molecule below, give its outcome
1. CC(=O)[O-].CC(=O)[O-].CC(=O)[O-].[Cr+3]
2. Nc1ccc(Cc2ccc(N)cc2)cc1
3. Brc1cccc(-c2ccccc2)c1
4. Cc1cccc(N)c1C

["inactive", "inactive", "inactive", "inactive"]

---

For each entry below, report its activity change % (negative = inhibition) value.
# tested_on: Thyroid hormone receptor beta (Homo sapiens)
# experiment_summary: qHTS assay for small molecule antagonists of thyroid hormone receptor beta signaling (AID 588547);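 also: cells stimulated with 0.4 nM T3 agonist during compound exposure; % is scaled to controls: 0 for no effect and ±100 for the full control effect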
# condition_notes: TR-UAS-bla HEK293, beta-lactamase ratio, antagonist mode, 18 h
Results filed as inconclusive are left out.
Numbers only, in %.

C=COC(C)=O; 0.373
CC(Cl)CCl (stereo unspecified); -3.7
Nc1cc(Cl)ccc1Cl; 16.8
CCBr; -4.65
c1ccc(OCC2CO2)cc1 (stereo unspecified); 6.77
COc1c(C(C)(C)C)cc([N+](=O)[O-])c(C)c1[N+](=O)[O-]; 24.1

// for each molecule below, give its activity change % (negative = inhibition)
1. Oc1cccc(Cl)c1Cl
2. Brc1cccc(-c2ccccc2)c1
3. ClC=CCl
4. CC(C)(Cl)Cl
5. CC(=O)NNc1ccccc1
6. C=CC(=O)OCCO
7. Clc1cc(Cl)c(Cl)c(Cl)c1
8. N#CCCC#N

[9.41, 0.106, -5.48, -3.24, -1.14, 12.5, -16.6, 5.23]

---

# experiment_summary: Cell Viability - Renal Proximal Tubule (AID 545);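 also: cells exposed to compound for 40 hours; 0% = DMSO only and -100% = 100 µM tamoxifen; nearly all actives have a fitted effect of over 40% in size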
# condition_notes: renal proximal tubule cells viability; series mostly up to 91.7 µM
Inconclusive results are not listed. Active and inactive are the calls of the source. The call rests on the fitted dose curve; in most records, active means well fitted cell-killing curve with a large enough effect; inconclusive means small, poorly fitted or top-dose-only effect; inactive means flat fitted curve, though single readings scatter.
recorded_endpoint: outcome

COc1c(C(C)(C)C)cc([N+](=O)[O-])c(C)c1[N+](=O)[O-]; inactive
CCN(CC)CCO; inactive
CC(C)[C@]12CC(=O)[C@H](C)[C@H]1C2; inactive
O=S(=O)(Cl)c1ccccc1; inactive

// for each molecule below, give its outcome
1. Cc1ccc2c(c1N)C(=O)c1ccccc1C2=O
2. CCCCCC[N+](=O)[O-]
3. OCC(Cl)CCl (stereo not drawn)

1. inactive
2. inactive
3. inactive

// for each molecule below, give its outcome
1. Cc1cc(C)cc(OP(=O)(Oc2cc(C)cc(C)c2)Oc2cc(C)cc(C)c2)c1
2. BrCC(Br)C1CCC(Br)C(Br)C1 (stereo not drawn)
3. N#CCCC#N
4. CN(C)C(=O)Cl
5. ClCc1ccccc1

["inactive", "inactive", "inactive", "inactive", "inactive"]

// for each molecule below, give its outcome
1. Oc1c(Cl)cccc1Cl
2. CCOS(C)(=O)=O
3. O=[N+]([O-])c1c(Cl)c(Cl)c(Cl)c(Cl)c1Cl
4. O=[N+]([O-])c1cccc(CCl)c1
5. NNC(N)=S
6. Cc1ccc(N)c(C)c1

inactive
inactive
inactive
inactive
inactive
inactive
